- Test system: AEK1 (Tb927.3.2440)
- PROTOCOL NOTES: percent reduction in TR-FRET probe signal relative to DMSO control; higher = stronger displacement of ATP-site probe (binding)
- CONDITIONS USED: 1 µM; incubation time 1 h
// percent reduction in TR-FRET probe signal lookup, one value per entry
ENDPOINT LABEL: percent reduction in TR-FRET probe signal

MOLECULE | EXPERIMENTAL SYSTEM | TEST RESULT
O=C(O)c1ccc(Nc2ncc3c(n2)-c2ccc(Cl)cc2C(c2c(F)cccc2F)=NC3)cc1 | AEK1 (Tb927.3.2440) | -4.14%
COc1cc(Nc2ncc(F)c(Nc3ccc4c(n3)NC(=O)C(C)(C)O4)n2)cc(OC)c1OC [R406 (free base)] | AEK1 (Tb927.3.2440) | 87.4%
CN(C)Cc1cccc(N/C(=C2\C(=O)Nc3cc(C(=O)N(C)C)ccc32)c2ccccc2)c1 | AEK1 (Tb927.3.2440) | -0.927%
CNC(=O)c1ccc(C)c(-n2c(C)cc(OCc3ccc(F)cc3F)c(Br)c2=O)c1 | AEK1 (Tb927.3.2440) | -1.42%
CC[C@@](C)(Nc1ccnc(-c2c[nH]c3ncccc23)n1)C(=O)NCC(F)(F)F | AEK1 (Tb927.3.2440) | -1.74%
CCc1cc(Nc2nccc(-c3c(-c4ccc(OC)c(C(=O)Nc5c(F)cccc5F)c4)nc4ccccn34)n2)c(OC)cc1N1CCC(N2CCN(S(C)(=O)=O)CC2)CC1 | AEK1 (Tb927.3.2440) | -12.2%
O=C1NC(=O)/C(=C\c2ccc(-c3ccc(F)cc3)o2)S1 | AEK1 (Tb927.3.2440) | -0.187%

* * *

In this section we review reported percent reduction in TR-FRET probe signal values for a set of molecules.
- System: AEK1 (Tb927.3.2440)
- PROTOCOL NOTES: percent reduction in TR-FRET probe signal relative to DMSO control; higher = stronger displacement of ATP-site probe (binding)
- CONDITIONS USED: 1 µM; incubation time 1 h
ENDPOINT LABEL: percent reduction in TR-FRET probe signal (%)

MOLECULE | U | TEST RESULT
O=C1Nc2cc(Br)ccc2/C1=C1/Nc2ccccc2/C1=N\O | % | 2.19
CCCCCCCCCCCCCCCCCCOP(=O)([O-])OC1CC[N+](C)(C)CC1 [Perifosine (KRX-0401)] | % | -18.1
C[C@@H](Oc1cc(-c2cnn(C3CCNCC3)c2)cnc1N)c1c(Cl)ccc(F)c1Cl | % | 35.4
CCO.N#CC(=C(\N)Sc1ccccc1N)/C(C#N)=C(/N)Sc1ccccc1N | % | 0.443
CC(C)c1cnn2c(NCc3ccccc3)cc(NCCCCCCN)nc12.Cl | % | -3.89
CN1CCN(c2ccc(-c3ccncc3-c3cc(F)c(O)c(F)c3)cc2)CC1 | % | 1.75
CCCCCCCCCCCCCCCCOP(=O)([O-])OCC[N+](C)(C)C [Miltefosine] | % | 4.96
CCOC(=O)c1cnc2ccc(-c3cncc(NS(=O)(=O)c4ccccc4)c3)cn12 | % | -3.6
COC(=O)Nc1ccc(-c2nc(N3CCOCC3)c3cnn(C4CCN(C(=O)OC)CC4)c3n2)cc1 | % | -6.41
O=C1NC(=O)C(c2cnc3ccccn23)=C1c1cn2c3c(cc(F)cc13)CN(C(=O)N1CCCCC1)CC2 | % | -14.7
OCCn1cc(-c2ccc3c(c2)CC/C3=N\O)c(-c2ccncc2)n1 | % | -6.91
CC(C)NC[C@@H](C(=O)N1CCN(c2ncnc3c2[C@H](C)C[C@H]3O)CC1)c1ccc(Cl)cc1 | % | 11.4
O=c1sn(-c2cccc3ccccc23)c(=O)n1Cc1ccccc1 [Tideglusib] | % | -35
Cc1c[nH]c(-c2cnc(NCCNc3ccc(C#N)cn3)nc2-c2ccc(Cl)cc2Cl)n1 | % | 2.8
CCn1c2ccccc2c2cc(Nc3ccnc(NCCCN4CCOCC4)n3)ccc21 | % | -8.54
Cc1cc(F)c(Nc2ncnc3cc(OCc4ccccc4)ccc23)cc1O.Cl | % | 29.8
Cc1ccc(C(=O)Nc2cccc(C(F)(F)F)c2)cc1Nc1nc(-c2cccnc2)nc2c1cnn2C | % | 1
Cc1cc2c(F)c(Oc3ncnn4cc(OC[C@@H](C)OC(=O)[C@H](C)N)c(C)c34)ccc2[nH]1 | % | 8.47
Nc1ccc(-c2ccc3ncc4ccc(=O)n(-c5cccc(C(F)(F)F)c5)c4c3c2)cn1 [Torin 2] | % | 1.07
Cc1ccc(NC(=O)c2ccc(CN3CCN(C)CC3)cc2)cc1Nc1nc(-c2cccnc2)cs1 [Masitinib (AB1010)] | % | -4.2
Cl.Cl.Fc1cc(-c2cccc3ncc(-c4cnn(C5CCNCC5)c4)nc23)cc(F)c1CN1CCOCC1 | % | 10.7
CCc1cnn2c(NCc3ccc[n+]([O-])c3)cc(N3CCCC[C@H]3CCO)nc12 | % | -4.69
Cc1cnc(NC(=O)Nc2cc(Br)c(C)cc2OC[C@@H]2CNCCO2)cn1 | % | 9.29
O=C(NC(NC(=S)Nc1ccc(F)c([N+](=O)[O-])c1)C(Cl)(Cl)Cl)C(c1ccccc1)c1ccccc1 (centres undefined) | % | 3.75
Cc1c(CN2CCN(C(=O)[C@H](C)O)CC2)sc2c(N3CCOCC3)nc(-c3cnc(N)nc3)nc12 | % | 0.467
NC[C@@](O)(c1ccc(Cl)cc1)c1ccc(-c2cn[nH]c2)cc1 | % | 11
Cc1cnc(Nc2ccc(OCCN3CCCC3)cc2)nc1Nc1cccc(S(=O)(=O)NC(C)(C)C)c1 | % | 31.6
COc1ccc(-c2ccc3c(N4CCOC[C@@H]4C)nc(N4CCOC[C@@H]4C)nc3n2)cc1CO | % | -7.43
CNS(=O)(=O)C[C@H]1CC[C@H](N(C)c2ncnc3[nH]ccc23)CC1.O=C(O)/C=C\C(=O)O [Oclacitinib] | % | 6.94
O=c1ncn2nc(Sc3ccc(F)cc3F)ccc2c1-c1c(Cl)cccc1Cl | % | 9.39
CCOc1cc(N2CCC(O)CC2)ccc1Nc1ncc2c(n1)N(C)c1ccccc1C(=O)N2C | % | -8.09
C#Cc1cccc(Nc2ncnc3cc(OCCOC)c(OCCO)cc23)c1.Cl | % | -0.453
CCn1c(-c2nonc2N)nc2c(C#CC(C)(C)O)ncc(OC[C@H]3CCCNC3)c21 | % | 8.8
Cc1ccc(NC(=O)c2cccc(N(C)C)c2)cc1NC(=O)c1ccc(O)cc1 | % | -8.68
